FYI, the data here is from BindingDB's records for patent US20250221987.

SYSTEM TESTED: Poly [ADP-ribose] polymerase 1 (Homo sapiens, UniProt P09874)
Sequence (P09874 whole entry): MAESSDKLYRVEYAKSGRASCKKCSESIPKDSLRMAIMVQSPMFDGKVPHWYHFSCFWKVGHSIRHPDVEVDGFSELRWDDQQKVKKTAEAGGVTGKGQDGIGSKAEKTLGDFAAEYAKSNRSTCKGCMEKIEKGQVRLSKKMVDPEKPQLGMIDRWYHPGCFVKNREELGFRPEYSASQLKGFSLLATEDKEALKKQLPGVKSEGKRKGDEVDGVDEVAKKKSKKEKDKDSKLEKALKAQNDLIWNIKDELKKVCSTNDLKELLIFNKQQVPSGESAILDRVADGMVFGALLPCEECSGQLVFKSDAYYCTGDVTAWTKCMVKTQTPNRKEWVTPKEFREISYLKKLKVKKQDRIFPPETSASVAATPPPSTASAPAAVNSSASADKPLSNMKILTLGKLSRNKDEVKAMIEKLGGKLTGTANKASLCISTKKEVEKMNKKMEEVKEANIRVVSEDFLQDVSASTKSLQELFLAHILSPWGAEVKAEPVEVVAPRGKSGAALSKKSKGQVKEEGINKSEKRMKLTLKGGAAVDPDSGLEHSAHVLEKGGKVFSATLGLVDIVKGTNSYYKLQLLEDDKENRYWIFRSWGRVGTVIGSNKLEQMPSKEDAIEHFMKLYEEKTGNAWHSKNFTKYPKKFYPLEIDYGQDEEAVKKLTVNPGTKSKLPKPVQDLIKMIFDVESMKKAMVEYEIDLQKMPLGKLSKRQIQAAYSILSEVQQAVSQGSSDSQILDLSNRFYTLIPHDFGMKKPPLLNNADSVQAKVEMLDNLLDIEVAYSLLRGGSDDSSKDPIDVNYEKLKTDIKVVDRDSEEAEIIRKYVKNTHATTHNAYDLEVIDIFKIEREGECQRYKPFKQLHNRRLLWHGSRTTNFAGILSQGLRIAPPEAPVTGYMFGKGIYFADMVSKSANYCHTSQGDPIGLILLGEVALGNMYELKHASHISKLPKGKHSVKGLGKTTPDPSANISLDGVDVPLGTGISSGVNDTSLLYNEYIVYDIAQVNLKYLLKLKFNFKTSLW
pIC50: −log10 of the molar value.
MEASURED ENDPOINT: pIC50

(1) CCc1cc2ncc(CN3CCN(c4ccc(C(=O)NC)nc4)[C@@H]4CC[C@H]43)cc2[nH]c1=O
(2) CCc1cc2ncc(CN3CCN(c4ccc(C(=O)NC)nc4)C4CCC43)cc2[nH]c1=O (centres undefined)
## Input Consider 1 and 2 . Which of these has its pIC50 at a higher number? Could you answer with the label of the item you picked?
## Output 2
(2: 9.05, 1: 8.82)

(a) CCc1cc2ncc(CN3CCN(c4ccc(C(=O)NC)nc4)C4CC43)cc2[nH]c1=O (centres undefined)
(b) CNC(=O)c1ccc(N2CCN(Cc3cnc4cc(OC)c(=O)[nH]c4c3)[C@H]3CC[C@H]32)cn1
## Input Compare pIC50: is it lower for a or for b ? Kindly give the label for the entry you pick.
## Output b
